Where do the numbers come from? From patent US10137110B2.

Entries annotated with measured pIC50
# SYSTEM: IDH1 R132H enzyme (Homo sapiens (Human), UniProt O75874, R132H)
# Sequence (O75874 whole entry R132H): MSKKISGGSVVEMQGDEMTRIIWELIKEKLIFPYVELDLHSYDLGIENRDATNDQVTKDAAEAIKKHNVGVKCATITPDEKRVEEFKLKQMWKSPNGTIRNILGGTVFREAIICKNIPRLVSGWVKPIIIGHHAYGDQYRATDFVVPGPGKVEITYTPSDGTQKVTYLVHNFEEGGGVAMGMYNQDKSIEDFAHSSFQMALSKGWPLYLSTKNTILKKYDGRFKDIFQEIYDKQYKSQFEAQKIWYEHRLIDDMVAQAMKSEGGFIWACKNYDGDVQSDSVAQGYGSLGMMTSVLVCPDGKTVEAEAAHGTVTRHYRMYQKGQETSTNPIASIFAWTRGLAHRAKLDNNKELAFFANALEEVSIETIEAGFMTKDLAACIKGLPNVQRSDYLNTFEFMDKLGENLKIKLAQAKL
# EXPERIMENT_DESCRIPTION: Mutant IDH1 R132H biochemical assay
# CONDITION_DESCRIPTION: NADPH consumption, luminescent readout; 1.5 nM enzyme, 250 μM α-KG, 1 μM NADPH, 30 minutes, 32° C.; test range 0.002-10 μM
Hey, just a heads up that pIC50 is the negative log base 10 of the concentration in molar.

{"columns": ["COMPOUND", "SYSTEM", "MEASURED_RESULT"],
 "data": [
  ["Cc1noc(C)c1-c1ccc2c(c1)nc(Nc1ccc(SC(F)(F)F)cc1)n2[C@@H]1C[C@H](C)CC(C)(C)C1 (stereo in doubt)", "IDH1 R132H enzyme (Homo sapiens (Human), UniProt O75874, R132H)", 5.96],
  ["COc1cc(-c2ccc3c(c2)nc(Nc2ccc(OC(F)(F)F)cc2)n3[C@@H]2C[C@H](C)CC(C)(C)C2)ccn1 (stereo in doubt)", "IDH1 R132H enzyme (Homo sapiens (Human), UniProt O75874, R132H)", 5.89],
  ["Cc1n[nH]c(C)c1-c1ccc2c(c1)nc(Nc1ccc(OC(F)(F)F)cc1)n2[C@H]1C[C@@H](C)CC(C)(C)C1 (stereo in doubt)", "IDH1 R132H enzyme (Homo sapiens (Human), UniProt O75874, R132H)", 5.81],
  ["Cc1cc(-c2ccc3c(c2)nc(Nc2ccc(OC(F)(F)F)cc2)n3[C@@H]2C[C@H](C)CC(C)(C)C2)n(C)n1 (stereo in doubt) [Example 2-12]", "IDH1 R132H enzyme (Homo sapiens (Human), UniProt O75874, R132H)", 7.00],
  ["Cc1n[nH]cc1-c1ccc2c(c1)nc(Nc1ccc(OC(F)(F)F)cc1)n2[C@@H]1C[C@H](C)CC(C)(C)C1 (stereo in doubt)", "IDH1 R132H enzyme (Homo sapiens (Human), UniProt O75874, R132H)", 6.96],
  ["Cc1noc(C)c1-c1ccc2c(c1)nc(Nc1ccc(OC(F)(F)F)cc1)n2[C@H]1C[C@@H](C)CC(C)(C)C1 (single isomer, unassigned) [Example 2-1-1]", "IDH1 R132H enzyme (Homo sapiens (Human), UniProt O75874, R132H)", 6.62]
]}

Prompt line: Using the record for Cc1cc(-c2ccc3c(c2)nc(Nc2ccc(OC(F)(F)F)cc2)n3[C@@H]2C[C@H](C)CC(C)(C)C2)n(C)n1 (stereo in doubt) [Example 2-12-1] , report its pIC50.
Response line: 5.37

Prompt line: For the compound shown here, "Cc1nc(-c2ccc3c(c2)nc(Nc2ccc(OC(F)(F)F)cc2)n3C2CC(C)(C)CC(C)(C)C2)no1" , give the reported pIC50.
Response line: 6.66

Prompt line: May I ask what pIC50 has been recorded for C[C@@H]1C[C@H](n2c(Nc3ccc(OC(F)(F)F)cc3)nc3cc(-c4cn(C)nc4C(F)(F)F)ccc32)CC(C)(C)C1 (stereo in doubt) ?
Response line: 6.11

Prompt line: What measured pIC50 goes with C[C@H]1C[C@@H](n2c(Nc3ccc(OC(F)(F)F)cc3)nc3cc(-c4cn(C)nc4C(F)(F)F)ccc32)CC(C)(C)C1 (stereo in doubt) [Example 2-16] ?
Response line: 6.54
